// reported MIC per item
- Test system: VREF: E. faecalis resistant to vancomycin (ATCC 51299)
- assay explanation: Broth microdilution MIC assay, VREF
- experimental context: Enterococcus faecalis, ATCC51299, read-out: MIC (bacterial growth inhibition)

Asked: Param item = CN[C@H](CC(C)C)C(=O)N[C@H]1C(=O)N[C@@H](CC(N)=O)C(=O)N[C@H]2C(=O)N[C@H]3C(=O)N[C@H](C(=O)N[C@H](C(=O)O)c4cc(O)cc(O)c4-c4cc3ccc4O)[C@H](O)c3ccc(c(Cl)c3)Oc3cc2cc(c3O[C@@H]2O[C@H](CO)[C@@H](O)[C@H](O)[C@H]2O[C@H]2C[C@](C)(N)[C@H](O)[C@H](C)O2)Oc2ccc(cc2Cl)[C@H]1O [Vancomycin, reference compound] ; retrieve measured MIC.
Given back: 25 µg/mL

Asked: Param item = COc1ccc2c3c([nH]c2c1)C(CC(CC1=NCCc2c1[nH]c1cc(OC)ccc21)c1c[nH]c2ccc(C#N)cc12)=NCC3 ; retrieve measured MIC.
Given back: > 88 µg/mL

Asked: Param item = COc1ccc2c3c([nH]c2c1)C(CCCC1=NCCc2c1[nH]c1cc(OC)ccc21)=NCC3 ; retrieve measured MIC.
Given back: > 110 µg/mL

Asked: Param item = COc1ccc2c3c([nH]c2c1)C(CC(CC1=NCCc2c1[nH]c1cc(OC)ccc21)c1c[nH]cn1)=NCC3 ; retrieve measured MIC.
Given back: > 127 µg/mL

---

- System: MRSA: S. aureus resistant to methicillin and oxacillin (ATCC 43300)
- assay explanation: Broth microdilution MIC assay, MRSA
- experimental context: Staphylococcus aureus, ATCC43300|MRSA, read-out: MIC (bacterial growth inhibition)
// reported MIC per item
The response must be a number in µg/mL with no trailing unit.

Asked: Param item = CN[C@H](CC(C)C)C(=O)N[C@H]1C(=O)N[C@@H](CC(N)=O)C(=O)N[C@H]2C(=O)N[C@H]3C(=O)N[C@H](C(=O)N[C@H](C(=O)O)c4cc(O)cc(O)c4-c4cc3ccc4O)[C@H](O)c3ccc(c(Cl)c3)Oc3cc2cc(c3O[C@@H]2O[C@H](CO)[C@@H](O)[C@H](O)[C@H]2O[C@H]2C[C@](C)(N)[C@H](O)[C@H](C)O2)Oc2ccc(cc2Cl)[C@H]1O [Vancomycin, reference compound] ; retrieve measured MIC.
Given back: 1.56

Asked: Param item = COc1ccc2c3c([nH]c2c1)C(CC(CC1=NCCc2c1[nH]c1cc(OC)ccc21)c1cncs1)=NCC3 ; retrieve measured MIC.
Given back: 16.4

Asked: Param item = COc1ccc2c3c([nH]c2c1)C(CC(CC1=NCCc2c1[nH]c1cc(OC)ccc21)c1ccc(C(F)(F)F)nc1)=NCC3 ; retrieve measured MIC.
Given back: 73.2

Asked: Param item = COc1ccc2c3c([nH]c2c1)C(CC(CC1=NCCc2c1[nH]c1cc(OC)ccc21)c1c[nH]c2ccc(C#N)cc12)=NCC3 ; retrieve measured MIC.
Given back: 3.5

Asked: Param item = COc1ccc2c3c([nH]c2c1)C(CC(CC1=NCCc2c1[nH]c1cc(OC)ccc21)c1c[nH]c2cccc([N+](=O)[O-])c12)=NCC3 ; retrieve measured MIC.
Given back: 2.75

---

- Tested on: MRSA (ATCC 43300)
- assay explanation: Minimum bactericidal concentration (MBC) assay, MRSA
- Format: cell-based
- experimental context: Staphylococcus aureus, MRSA; read-out: MRSA-MBC
observation type: MBC (µM)
The response must be a number in µM with no trailing unit.

Please review the entries below; each comes with its answer.
| cpd smiles | tested on | MBC / µM |
| --- | --- | --- |
| COc1ccc2c3c([nH]c2c1)C(CC(CC1=NCCc2c1[nH]c1cc(OC)ccc21)c1c[nH]cn1)=NCC3 | MRSA (ATCC 43300) | 125 |
| COc1ccc2c3c([nH]c2c1)C(CC(CC1=NCCc2c1[nH]c1cc(OC)ccc21)c1cccnc1)=NCC3 | MRSA (ATCC 43300) | 62.5 |

Asked: Param item = COc1ccc2c3c([nH]c2c1)C(CC(CC1=NCCc2c1[nH]c1cc(OC)ccc21)c1cncs1)=NCC3 ; retrieve measured MBC.
Given back: 62.5

Asked: Param item = COc1ccc2c3c([nH]c2c1)C(CCCC1=NCCc2c1[nH]c1cc(OC)ccc21)=NCC3 ; retrieve measured MBC.
Given back: 250

---

- Tested on: E. coli (ATCC 25922)
- assay explanation: Broth microdilution MIC assay, E. coli
- experimental context: E. coli
observation type: MIC (bacterial growth inhibition)

| cpd smiles | observation type | observed value |
| --- | --- | --- |
| COc1ccc2c3c([nH]c2c1)C(CC(CC1=NCCc2c1[nH]c1cc(OC)ccc21)c1ccncc1)=NCC3 | MIC (bacterial growth inhibition) | no activity was observed |
| COc1ccc2c3c([nH]c2c1)C(CC(CC1=NCCc2c1[nH]c1cc(OC)ccc21)c1c[nH]c2cccc([N+](=O)[O-])c12)=NCC3 | MIC (bacterial growth inhibition) | 6.25 µg/mL |
| COc1ccc2c3c([nH]c2c1)C(CC(CC1=NCCc2c1[nH]c1cc(OC)ccc21)c1ccccn1)=NCC3 | MIC (bacterial growth inhibition) | no activity was observed |

---

- Test system: MRSA (ATCC 43300)
- assay explanation: Minimum bactericidal concentration (MBC) assay, MRSA
- Assay type: cell-based
- experimental context: Staphylococcus aureus, MRSA; read-out: MRSA-MBC
- Protocol: (f) Determination of MBC: MBC was determined by sampling all the macroscopically clear wells. Before sampling, the wells were gently mixed by flushing them with a pipette, and a 5 μL was removed and placed on an agar plate suitable for the growth of the microbe being tested. The agar plate was divided into three parts to test three trials of a single concentration. The sample was allowed to be absorbed into the agar for ˜30 minutes. The plates were then incubated for 24 hours at 37° C. […]
// reported MBC per item

Asked: Param item = COc1ccc2c3c([nH]c2c1)C(CC(CC1=NCCc2c1[nH]c1cc(OC)ccc21)c1ccc(C(F)(F)F)nc1)=NCC3 ; retrieve measured MBC.
Given back: > 250 µM

Asked: Param item = COc1ccc2c3c([nH]c2c1)C(CC(CC1=NCCc2c1[nH]c1cc(OC)ccc21)c1ccccn1)=NCC3 ; retrieve measured MBC.
Given back: > 250 µM

Asked: Param item = COc1ccc2c3c([nH]c2c1)C(CC(CC1=NCCc2c1[nH]c1cc(OC)ccc21)c1ccncc1)=NCC3 ; retrieve measured MBC.
Given back: > 250 µM
